All values here come from a protein production outcome set (Wang et al. 2014).

assay: label from the status in PepcDB records;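 note: failed if final PepcDB status was selected cloned or expressed and not failed if soluble or beyond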
property measured: protein production

MSGLVTGREIVQTARDENVPFMGASIAYYAIASIVPLLALLLAALSTFGGTVTLLELLRTVLSENGQVILTELLENTRGHGATGTLSLVLVVWSGSKVFRSLSVAFTEVYGEVTDISLPAQLVRSAVVMGVLLGAVVFLSATSVALTYVKFQVPYPTLVGNVAAFAALGVAFVPIYYVLPPVKTSLTHVAPGALFAAAGWITIQVGFFYYAGTAGRYAAYGYLGALLLFVTALYLAAIVLLLGVVVNATLDW: failed
MMTGLYLGALAGIAVALAVLMAGAWVVQQLTGNSGWVDTIWTFSLGLTGAVSSLWPIDGAAPDARQWLVAVLVATWSLRLGSHIAARTRHITDDPRYAAYAAQWGTDAPKRMFFFLQNQAYGTIPLVFAIFVAAHAPAGSLRLQDYLGVLILIVAIAGEGLSDAQLKAFRENSANKGKVCDAGLWRWSRHPNYFFQWFGWLAYPVIAIPFAEPLSYLWGYAALLAPLFMYWILVYVTGIPPLEEQMLKSRGDRYRDYQARTSMFFPLPPRRSATL: failed
